// data source = ChEMBL document CHEMBL4261536

# Tested on: PBMC
# assay-info: Cytotoxicity against human PBMC assessed as decrease in cell viability using compound loaded PLGA microcapsule after 72 hrs by Alamar blue assay
# Assay type: cell-based
parameter: pIC50
Note on units: pIC50 is unitless, being -log10 of a concentration expressed in mol/L.

Record request: pIC50 value, item CC1(C)CC2=C(O1)c1ccccc1C(=O)C2=O [NOR-BETA-LAPACHONE] 5.00

---

# System: PC-3
# assay-info: Cytotoxicity against human PC3 cells assessed as decrease in cell viability using compound loaded PLGA microcapsule after 72 hrs by MTT assay
# Type: functional, cell-based
# measurement-context: PC-3, 72 h
parameter: pIC50
Note on units: pIC50 is unitless, being -log10 of a concentration expressed in mol/L.

Record request: pIC50 value, item CC1(C)CC2=C(O1)c1ccccc1C(=O)C2=O 5.73
